assay: mn = molality of the nth substance listed, in mol/kg; conditions: 293.15 K; 101 kPa; Liquid; Capillary tube (Ostwald / Ubbelohde) method; m1 = 0.05
MEASURED_ENDPOINT: viscosity (mPa·s)

Ask | Requested read-out: viscosity. Entry: O=C[C@H](O)[C@H](O)[C@H](O)CO [D-ribose] + O
Reply | 1.019

Ask | Please answer likewise for NCC(=O)O [2-aminoacetic acid] + O
Reply | 1.016

Ask | Please answer likewise for OC[C@H]1OC(OC[C@H]2OC(O[C@]3(CO)O[C@H](CO)[C@@H](O)[C@@H]3O)[C@H](O)[C@@H](O)[C@@H]2O)[C@H](O)[C@@H](O)[C@H]1O (stereo partly drawn) [D-(+)-raffinose] + O
Reply | 1.056

Ask | Please answer likewise for CC(C)C[C@H](N)C(=O)O [L-leucine] + O
Reply | 1.022

----------
test: mn = molality of the nth substance listed, in mol/kg; settings: 308.15 K; 101 kPa; Liquid; Capillary tube (Ostwald / Ubbelohde) method; m1 = 0.05
MEASURED_ENDPOINT: viscosity (mPa·s)

Ask | Requested read-out: viscosity. Entry: OC[C@H]1OC(OC[C@H]2OC(O[C@]3(CO)O[C@H](CO)[C@@H](O)[C@@H]3O)[C@H](O)[C@@H](O)[C@@H]2O)[C@H](O)[C@@H](O)[C@H]1O (stereo partly drawn) [D-(+)-raffinose] + O
Reply | 0.7393

Ask | Please answer likewise for O=C[C@H](O)[C@H](O)[C@H](O)CO [D-ribose] + O
Reply | 0.7261

Ask | Please answer likewise for NCC(=O)O [2-aminoacetic acid] + O
Reply | 0.7213

Ask | Please answer likewise for CC(C)C[C@H](N)C(=O)O [L-leucine] + O
Reply | 0.7237

----------
assay: mn = molality of the nth substance listed, in mol/kg; conditions: 303.15 K; 101 kPa; Liquid; Capillary tube (Ostwald / Ubbelohde) method; m1 = 0.1
MEASURED_ENDPOINT: viscosity (mPa·s)

Ask | Requested read-out: viscosity. Entry: O=C[C@H](O)[C@H](O)[C@H](O)CO [D-ribose] + O
Reply | 0.8183

Ask | Please answer likewise for OC[C@H]1OC(OC[C@H]2OC(O[C@]3(CO)O[C@H](CO)[C@@H](O)[C@@H]3O)[C@H](O)[C@@H](O)[C@@H]2O)[C@H](O)[C@@H](O)[C@H]1O (stereo partly drawn) [D-(+)-raffinose] + O
Reply | 0.8719

Ask | Please answer likewise for CC(C)C[C@H](N)C(=O)O [L-leucine] + O
Reply | 0.8011

Ask | Please answer likewise for NCC(=O)O [2-aminoacetic acid] + O
Reply | 0.8056

----------
experiment: mn = molality of the nth substance listed, in mol/kg; details: 293.15 K; 101 kPa; Liquid; Capillary tube (Ostwald / Ubbelohde) method; m1 = 0.1
MEASURED_ENDPOINT: viscosity (mPa·s)

Ask | Requested read-out: viscosity. Entry: NCC(=O)O [2-aminoacetic acid] + O
Reply | 1.022

Ask | Please answer likewise for O=C[C@H](O)[C@H](O)[C@H](O)CO [D-ribose] + O
Reply | 1.035

Ask | Please answer likewise for CC(C)C[C@H](N)C(=O)O [L-leucine] + O
Reply | 1.026

Ask | Please answer likewise for OC[C@H]1OC(OC[C@H]2OC(O[C@]3(CO)O[C@H](CO)[C@@H](O)[C@@H]3O)[C@H](O)[C@@H](O)[C@@H]2O)[C@H](O)[C@@H](O)[C@H]1O (stereo partly drawn) [D-(+)-raffinose] + O
Reply | 1.118
